meta.source: the supplement of paper PMC10567573

B1: RAB11A (parent)
chain: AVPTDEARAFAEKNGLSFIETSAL

variants of: B1; assay: protein stability index of a GFP-peptide fusion (GPS, HEK-293T) (PSI 1-6); higher = more stable; conditions: c terminus: a fixed tail appended;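 also: lentivirally expressed fusions sorted by FACS into six bins by GFP to DsRed ratio, PSI derived from sequencing read proportions per bin multiplied by bin number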
endpoint: protein stability index
Enter a number only.

S17T | 3.36
A7D | 2.99

// moving on: another record for protein stability index
Request: Fill in the blank: the reported protein stability index of E20I is ____.
Response: 1.8
